Provenance of the data: ChEMBL document CHEMBL1134688

# reported log10 of Ki; entries follow
- TARGET OR SYSTEM: Adrenergic receptor alpha-1 (Rattus norvegicus, UniProt P15823+P23944+P43140)
- PROCEDURE SUMMARY: Alpha-1 adrenergic receptor binding affinity of the compound, value taken from literature
- Format: protein assay
MEASURE NAME: log10 of Ki (log10 of the value in nM)

[[record]]
smiles_str = "COc1ccccc1N1CCN(CCNC(=O)C23CC4CC(CC(C4)C2)C3)CC1"
measure_name = "log10 of Ki"
val = 1.24

[[record]]
smiles_str = "CCC(=O)NCCN1CCN(c2ccccc2OC)CC1"
measure_name = "log10 of Ki"
val = 2.41

[[record]]
smiles_str = "COc1ccccc1N1CCN(CCCCN2C(=O)CCC2=O)CC1"
measure_name = "log10 of Ki"
val = 1.08

[[record]]
smiles_str = "O=C1CCc2ccccc2N1CCCCN1CCN(c2ncccn2)CC1"
measure_name = "log10 of Ki"
val = 2.57

[[record]]
smiles_str = "COc1ccccc1N1CCN(CCCCN2C(=O)CCc3ccccc32)CC1"
measure_name = "log10 of Ki"
val = -0.47

